Target: T1, AFP p26 (human, UniProt P02771 381-609)
T1 construct: The construct used is not described
T1 sequence: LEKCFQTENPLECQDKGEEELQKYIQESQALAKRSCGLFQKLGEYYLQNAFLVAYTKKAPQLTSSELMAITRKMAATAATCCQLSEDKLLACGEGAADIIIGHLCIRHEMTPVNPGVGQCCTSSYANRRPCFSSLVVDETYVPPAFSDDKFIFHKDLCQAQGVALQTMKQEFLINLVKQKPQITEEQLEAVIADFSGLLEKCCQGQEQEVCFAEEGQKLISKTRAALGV
Assay: phage ELISA, A450 target/A450 IgG1-Fc
measured_parameter: ELISA_avg (ratio)
Use ratio as the unit, but write only the number.

SEQ ID NO 831 (designed binder) MGSWFLFKSELAWIKWRLEALGGSEAELAYFEYQIAEFEFWLQSYKGKGNPEVEALRKEAAAIRDELQAYRHN ... 25.8
SEQ ID NO 798 (designed binder) MGSWYEFMYRLDAIEYRLFALGGSEAELAAFEKEIAAFESELQAYKGKGNPEVESLRIHAAMIREWLQAYRHN ... 19.4
SEQ ID NO 860 (designed binder) MGSWVEFKRDLANIKQRLEALGGSEAELAQFEMQIAWFEHTLQYYKGKGNPEVEALRKEAAAIRDELQAYRHN ... 30.4
SEQ ID NO 794 (designed binder) MGSWYEFVSRLEAIDDRLYALGGSEAELAAFEKEIAAFESELQAYKGKGNPEVEMLRQHAAAIRHWLQAYRHN ... 33.1
SEQ ID NO 822 (designed binder) MGSWADFKWTLAYIKHRLEALGGSEAELAFFEMEIAYFEQSLQNYKGKGNPEVEALRKEAAAIRDELQAYRHN ... 31.5

In: Identify measured ELISA_avg associated with SEQ ID NO 834 (designed binder) MGSWLYFKSDLAWIKWRLEALGGSEAELADFEEAIAEFEQALQIYKGKGNPEVEALRKEAAAIRDELQAYRHN
Out: 21.2

In: Identify measured ELISA_avg associated with SEQ ID NO 852 (designed binder) MGSWQIFKQDLAAIKDYLEALGGSEAELAIFEFDIAWFEHMLQWYKGKGNPEVEALRKEAAAIRDELQAYRHN
Out: 17.4

In: Identify measured ELISA_avg associated with SEQ ID NO 813 (designed binder) MGSWFEFSDRLYAIWERLDALGGSEAELAAFEKEIAAFESELQAYKGKGNPEVESLRFQAAFIRYQLQAYRHN
Out: 19

In: Identify measured ELISA_avg associated with SEQ ID NO 766 (designed binder) MGSWFEFYERLNAIDSRLWALGGSEAELAAFEKEIAAFESELQAYKGKGNPEVEKLRAHAASIRTWLQAYRHN
Out: 27.1

In: Identify measured ELISA_avg associated with SEQ ID NO 785 (designed binder) MGSWMEFVDRLSAIDRRLWALGGSEAELAAFEKEIAAFESELQAYKGKGNPEVEVLREHAANIRQWLQAYRHN
Out: 32.1
